System: HOP-92 NSCLC
Test: NCI tumour cell line growth inhibition, 48 h; in the data active = GI50 below about 0.43 µM; inactive = the rest
Could you please pick one outcome from this set? label 1 = active, label 0 = inactive

Tell me the assay call for CSc1ccc(C2=NN(C(C)=O)C(c3ccc(-c4ccc(Cl)cc4)o3)C2)cc1 (stereo not drawn) please.
label 0

Please share the test call associated with `C=C1[C@@H](O)O[C@H]2[C@H]1C[C@H](OC(C)=O)[C@]13C(=O)O[C@H]4C[C@](C)(O)[C@H]([C@H]41)C31C=C(C)[C@]2(O)O1` .
label 0

###

Tested on: SK-MEL-2 melanoma
Assay: NCI tumour cell line growth inhibition, 48 h
Give measured TGI for each item. Keep answers brief.

Record TGI for all entries; do not skip any.
1. O=C(CN1N=C(c2ccc(F)cc2)CCC1=O)Nc1nc2ccccc2s1
2. CC(=O)/C(=C\c1ccccc1O)C(=O)Nc1ccccc1C
3. CCN(CCN(CC)C(=O)Nc1ccccc1)C(=O)Nc1ccccc1

1: > 100 µM; 2: 46.9 µM; 3: > 100 µM

// lookup TGI | system=SK-MEL-2 melanoma | key= `CCOC(=O)Cn1nnc2ccc(Nc3nc4ccccc4nc3-c3ccccc3)cc21`
> 100 µM

###

Tested on: M14 melanoma
Experiment: NCI tumour cell line growth inhibition, 48 h
Provide the recorded GI50 for the entries that follow.

Some entries whose results are on file:
COc1cc(C(=O)c2cc(C)c3[nH]c4ccc(O)cc4c3c2C)cc(OC)c1OC    18.5 nM
COc1ccc(Nc2ccc([N+](=O)[O-])cc2[N+](=O)[O-])cc1CN(CCCl)CCCl    2720 nM
COc1ccc(/C=C(\C)[N+](=O)[O-])cc1OC    1960 nM
N#CCCNc1nonc1-c1nc2ccccc2n1CC(=O)c1ccc(NC(=O)[C@@H](N)CCCCN)cc1    19.9 nM
CC(C)C[C@H](NC(=O)CCn1ccc2ccccc2c1=O)B(O)O    4230 nM

Pending molecule:
Form field: reported GI50 of `COc1cc(/C=C/c2ccc3c(Br)cc(Br)c(O)c3n2)ccc1O`
1610 nM

###

Test system: NCI-H23 lung
Assay: NCI tumour cell line growth inhibition, 48 h
Readout label: TGI (µM)
Numbers only, in µM.

Some solved cases for reference:
COc1cc(-c2nn(-c3cccc(NC(=O)CCN4CCN(Cc5ccccc5)CC4)c3)cc2-c2ccncc2)ccc1Cl    9.26
N#CCN1C(=O)c2cc([N+](=O)[O-])cc3cc([N+](=O)[O-])cc(c23)C1=O    32.9

Now for the molecule whose TGI we want.
Look up TGI for this molecule: `CC(=O)/C(=C\c1ccccc1O)C(=O)Nc1ccccc1C`
37.2

###

Test system: HCT-15 colon
Assay: NCI tumour cell line growth inhibition, 48 h
Readout label: GI50

Examples with answers:
FC(F)(F)c1cccc(-c2nn3ncccc3c2-c2ccnc(Nc3ccc4c(c3)OCCO4)n2)c1    6.59 µM
O=C(NNS(=O)(=O)c1ccc(Cl)cc1Cl)c1cccnc1Nc1ccc(Cl)cc1    33.4 µM
C=C1[C@@H](O)O[C@H]2[C@H]1C[C@H](OC(C)=O)[C@]13C(=O)O[C@H]4C[C@](C)(O)[C@H]([C@H]41)C31C=C(C)[C@]2(O)O1    49.2 µM

# ---- query molecule ----
Requested read-out GI50, target or system HCT-15 colon, entry `COc1ccc2c(c1)C(=O)c1c-2c(OCCN(C)C)nc2ccccc12`
2.02 µM
